# Tested on: Jurkat
# METHOD_SUMMARY: Antiproliferative activity against human Jurkat cells assessed as reduction in cell growth incubated for 48 hrs by MTT assay
# Type: functional, cell-based
Here the recorded IC50 is given for each entry.
# unit: µM | format: bare number

// query Notebook entry, Jurkat assay: IC50 of COc1ccc2c(c1)c(CC(=O)N[C@@H](Cc1ccc(OCc3cccc(C#N)c3)cc1)C(=O)NS(=O)(=O)c1ccc(Cl)c([N+](=O)[O-])c1)c(C)n2C(=O)c1ccc(Cl)cc1 = ?
// result 55.2

// query Field: IC50 (Jurkat). Entry: COc1ccc2c(c1)c(CC(=O)N[C@@H](Cc1ccc(OCc3ccc(Br)cc3)cc1)C(=O)NS(=O)(=O)c1ccc(Cl)c([N+](=O)[O-])c1)c(C)n2C(=O)c1ccc(Cl)cc1
// result 24.7

// query Find IC50 (Jurkat) for the entry COc1ccc2c(c1)c(CC(=O)N[C@@H](Cc1ccc(OCc3cccc(C)c3)cc1)C(=O)NS(=O)(=O)c1ccc(Cl)c([N+](=O)[O-])c1)c(C)n2C(=O)c1ccc(Cl)cc1
// result 30.3

// query Identify the measured IC50 of Cc1ccc(S(=O)(=O)NC(=O)[C@H](Cc2ccccc2)N2C(=O)/C(=C/c3ccc(-c4ccccc4)cc3)SC2=S)cc1 for Jurkat.
// result 31.8
